- Test system: YT (IL-2 2.5 ng/mL)
- assay text: percent inhibition of viability; higher = more inhibition;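 further: normalised to DMSO-only wells as negative and benzethonium chloride as positive control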
- reported conditions: 72 h; 10000 nM

molecule: O=C(c1ccc(OCCN2CCCCC2)cc1)c1c(-c2ccc(O)cc2)sc2cc(O)ccc12 [Raloxifene] (max concentration tested 10000 nM)
percent inhibition of viability (%): 77

molecule: Nc1ccn([C@@H]2O[C@H](CO)[C@@H](O)[C@@H]2O)c(=O)n1 [Cytarabine] (max concentration tested 10000 nM)
percent inhibition of viability (%): 28.4

molecule: COc1c(C)cnc(Cn2cnc3c(Cl)nc(N)nc32)c1C [BIIB021] (max concentration tested 10000 nM)
percent inhibition of viability (%): 94.5

molecule: CN1CCN(c2ccc3nc(-c4c(N)c5c(F)cccc5[nH]c4=O)[nH]c3c2)CC1 [Dovitinib] (max concentration tested 10000 nM)
percent inhibition of viability (%): 1.67

molecule: c1ccc2c(CCNc3ccc(Nc4ccncc4)cc3)c[nH]c2c1 [Serdemetan] (max concentration tested 10000 nM)
percent inhibition of viability (%): 89.5

molecule: N#CC[C@H](C1CCCC1)n1cc(-c2ncnc3[nH]ccc23)cn1 [Ruxolitinib] (max concentration tested 10000 nM)
percent inhibition of viability (%): 84.3

* * *

Form field: percent inhibition of viability (one value per entry).
- System: SNK-6 (IL-2 2.5 ng/mL)
- assay text: percent inhibition of viability; higher = more inhibition
- reported conditions: 72 h; 10 nM
property label: percent inhibition of viability

compound: COc1c(C)cnc(Cn2cnc3c(Cl)nc(N)nc32)c1C [BIIB021] (max concentration tested 10000 nM)
property label: percent inhibition of viability
measured result: -3.8%
--
compound: Nc1ccccc1NC(=O)c1ccc(CNC(=O)OCc2cccnc2)cc1 [Entinostat] (max concentration tested 10000 nM)
property label: percent inhibition of viability
measured result: 8.55%
--
compound: Nc1nc(F)nc2c1ncn2[C@@H]1O[C@H](CO)[C@@H](O)[C@@H]1O [Fludarabine] (max concentration tested 10000 nM)
property label: percent inhibition of viability
measured result: 33.8%
--
compound: Nc1ncn([C@H]2C[C@H](O)[C@@H](CO)O2)c(=O)n1 [Decitabine] (max concentration tested 10000 nM)
property label: percent inhibition of viability
measured result: 14.8%
--
compound: C[C@@]1(C(=O)Nc2ccc(F)nc2)CCCN1c1nc(Nc2cc(C3CC3)n[nH]2)c2cccn2n1 (max concentration tested 10000 nM)
property label: percent inhibition of viability
measured result: -11.9%
--
compound: Cc1sc2c(c1C)C(c1ccc(Cl)cc1)=N[C@@H](CC(=O)OC(C)(C)C)c1nnc(C)n1-2 [(+)JQ1] (max concentration tested 10000 nM)
property label: percent inhibition of viability
measured result: -1.34%
--
compound: CC1(C)CNc2cc(NC(=O)c3cccnc3NCc3ccncc3)ccc21 [Motesanib] (max concentration tested 10000 nM)
property label: percent inhibition of viability
measured result: -22.6%
--
compound: CNC(=O)c1cc(Oc2ccc(NC(=O)Nc3ccc(Cl)c(C(F)(F)F)c3)c(F)c2)ccn1 [Regorafenib] (max concentration tested 10000 nM)
property label: percent inhibition of viability
measured result: 17.5%
--
compound: O=C(Nc1cccnc1)N1CCC(Cc2cccc(Oc3ccc(C(F)(F)F)cn3)c2)CC1 [PF-3845] (max concentration tested 10000 nM)
property label: percent inhibition of viability
measured result: -1.35%
--
compound: CN(C)C1CCN(C(=O)c2ccc(NC(=O)Nc3ccc(-c4nc(N5CCOCC5)nc(N5CCOCC5)n4)cc3)cc2)CC1 [Gedatolisib] (max concentration tested 1000 nM)
property label: percent inhibition of viability
measured result: 17.4%
--
compound: CC[C@H](NC(=O)[C@H](C)NC)C(=O)N1C[C@@H](O)C[C@H]1Cc1c(-c2[nH]c3cc(F)ccc3c2C[C@@H]2C[C@H](O)CN2C(=O)[C@H](CC)NC(=O)[C@H](C)NC)[nH]c2cc(F)ccc12 [Birinapant] (max concentration tested 1000 nM)
property label: percent inhibition of viability
measured result: -7.31%
--
compound: Nc1nc(N)c2nc(-c3cccc(O)c3)c(-c3cccc(O)c3)nc2n1 [TG100-115] (max concentration tested 10000 nM)
property label: percent inhibition of viability
measured result: 13.3%
--
compound: N#CC[C@H](C1CCCC1)n1cc(-c2ncnc3[nH]ccc23)cn1 [Ruxolitinib] (max concentration tested 10000 nM)
property label: percent inhibition of viability
measured result: 12.7%
--
compound: Oc1ncnc2[nH]ncc12 [Allopurinol] (max concentration tested 10000 nM)
property label: percent inhibition of viability
measured result: -22.5%
--
compound: CC(=O)O[C@@]12CO[C@@H]1C[C@H](O)[C@@]1(C)C(=O)[C@H](O)C3=C(C)[C@@H](OC(=O)[C@H](O)[C@@H](NC(=O)OC(C)(C)C)c4ccccc4)C[C@@](O)([C@@H](OC(=O)c4ccccc4)[C@H]21)C3(C)C [Docetaxel] (max concentration tested 1000 nM)
property label: percent inhibition of viability
measured result: 77.9%
--
compound: C[C@]1(O)C[C@@H](c2nc(-c3ccc4ccc(-c5ccccc5)nc4c3)c3c(N)nccn32)C1 [Linsitinib] (max concentration tested 10000 nM)
property label: percent inhibition of viability
measured result: -12.6%
--
compound: CNC(=O)c1ccc(N2C(=S)N(c3cnc(C#N)c(C(F)(F)F)c3)C(=O)C23CCC3)cc1F [ARN 509] (max concentration tested 10000 nM)
property label: percent inhibition of viability
measured result: -1.7%
--
compound: COc1cc2/c(=N/c3ccc(Br)cc3F)nc[nH]c2cc1OCC1CCN(C)CC1 [Vandetanib] (max concentration tested 1000 nM)
property label: percent inhibition of viability
measured result: 14.3%
--
compound: Cc1ccc(-c2cc(C(F)(F)F)nn2-c2ccc(S(N)(=O)=O)cc2)cc1 [Celecoxib] (max concentration tested 10000 nM)
property label: percent inhibition of viability
measured result: 19.3%
--
compound: CC[C@H](Nc1ncnc2[nH]cnc12)c1nc2cccc(F)c2c(=O)n1-c1ccccc1 [Idelalisib] (max concentration tested 10000 nM)
property label: percent inhibition of viability
measured result: -5.04%

Data provenance is the supplement of paper PMC5908809.
